Listing of recorded concentration at 3.5 h by entry.
assay: Plasma and tumor compound concentrations in CT26 tumor-bearing mice (LC-MS/MS); type: in vivo, BALB/c mice; conditions: BALB/c, mouse, tumor, intravenous; 0.375 mg/kg single i.v., 3.5 h (Table 4); read-out: Tumor Conc.
Where a name gives a salt, the structure may show the parent alone.
MEASUREMENT KIND: concentration at 3.5 h (nM)

>>> value_measured("CCn1nc(C)cc1C(=O)Nc1nc2cc(C(N)=O)cc3c2n1C/C=C/Cn1c(NC(=O)c2cc(C)nn2CC)nc2cc(C(=O)N[C@H]4CC[C@H](c5nnn[nH]5)CC4)cc(c21)OC[C@@H](N1C2CCC1COC2)CO3 [Compound 12, sodium salt]")
360
>>> value_measured("CCn1nc(C)cc1C(=O)Nc1nc2cc(C(N)=O)cc3c2n1C/C=C/Cn1c(NC(=O)c2cc(C)nn2CC)nc2cc(C(=O)NCCCn4cc(C(=O)O)cn4)cc(c21)OCCCO3 [Compound 8, sodium salt]")
90
>>> value_measured("CCn1nc(C)cc1C(=O)Nc1nc2cc(C(N)=O)cc3c2n1C/C=C/Cn1c(NC(=O)c2cc(C)nn2CC)nc2cc(C(=O)N[C@H]4CC[C@H](c5nnn[nH]5)CC4)cc(c21)OCCCO3 [Compound 6, sodium salt]")
290
>>> value_measured("CCn1nc(C)cc1C(=O)Nc1nc2cc(C(N)=O)cc3c2n1C/C=C/Cn1c(NC(=O)c2cc(C)nn2CC)nc2cc(C(=O)N[C@H]4CC[C@H](C(=O)O)CC4)cc(c21)OC[C@@H](N1C2CCC1COC2)CO3 [Compound 14, sodium salt]")
170

---

test: Plasma and tumor compound concentrations in CT26 tumor-bearing mice (LC-MS/MS); assay type: in vivo, BALB/c mice; details: BALB/c, mouse, tumor, intravenous; 0.375 mg/kg single i.v., 8 h (Table 4); read-out: Tumor Conc.
Where a name gives a salt, the structure may show the parent alone.
MEASUREMENT KIND: concentration at 8 h (nM)

>>> value_measured("CCn1nc(C)cc1C(=O)Nc1nc2cc(C(N)=O)cc3c2n1C/C=C/Cn1c(NC(=O)c2cc(C)nn2CC)nc2cc(C(=O)N[C@H]4CC[C@H](c5nnn[nH]5)CC4)cc(c21)OC[C@@H](N1C2CCC1COC2)CO3 [Compound 12, sodium salt]")
190
>>> value_measured("CCn1nc(C)cc1C(=O)Nc1nc2cc(C(N)=O)cc3c2n1C/C=C/Cn1c(NC(=O)c2cc(C)nn2CC)nc2cc(C(=O)NCCCn4cc(C(=O)O)cn4)cc(c21)OCCCO3 [Compound 8, sodium salt]")
60
>>> value_measured("CCn1nc(C)cc1C(=O)Nc1nc2cc(C(N)=O)cc3c2n1C/C=C/Cn1c(NC(=O)c2cc(C)nn2CC)nc2cc(C(=O)N[C@H]4CC[C@H](C(=O)O)CC4)cc(c21)OC[C@@H](N1C2CCC1COC2)CO3 [Compound 14, sodium salt]")
130
>>> value_measured("CCn1nc(C)cc1C(=O)Nc1nc2cc(C(N)=O)cc3c2n1C/C=C/Cn1c(NC(=O)c2cc(C)nn2CC)nc2cc(C(=O)N[C@H]4CC[C@H](c5nnn[nH]5)CC4)cc(c21)OCCCO3 [Compound 6, sodium salt]")
250
